Measured viscosity by item
- Conditions used: 288.15 K; 100 kPa; Liquid; Cone and plate viscometry
Readout kind: viscosity (mPa·s)

{"columns": ["Compound", "Uom", "Reading"],
 "data": [
  ["CCCC[n+]1ccn(C)c1.O=S(=O)([N-]S(=O)(=O)C(F)(F)F)C(F)(F)F", "mPa·s", 80],
  ["CC[P+](CC)(CC)COCCOC.O=S(=O)([N-]S(=O)(=O)C(F)(F)F)C(F)(F)F", "mPa·s", 51],
  ["CCn1cc[n+](C)c1.O=S(=O)([N-]S(=O)(=O)C(F)(F)F)C(F)(F)F", "mPa·s", 50],
  ["CCCCCCCCCCCCCC[P+](CCCCCC)(CCCCCC)CCCCCC.N#Cc1ccc[n-]1 [trihexyl(tetradecyl)phosphonium 2-cyanopyrrolide]", "mPa·s", 804],
  ["CCCCCCn1cc[n+](C)c1.N#Cc1ccc[n-]1 [1-hexyl-3-methylimidazolium 2-cyanopyrrolide]", "mPa·s", 553]
]}

Sourced from the NIST ThermoML archive (doi:10.1021/acs.jced.7b00221)
